Target: Glucocorticoid receptor (Homo sapiens)
Sequence (P04150 whole entry): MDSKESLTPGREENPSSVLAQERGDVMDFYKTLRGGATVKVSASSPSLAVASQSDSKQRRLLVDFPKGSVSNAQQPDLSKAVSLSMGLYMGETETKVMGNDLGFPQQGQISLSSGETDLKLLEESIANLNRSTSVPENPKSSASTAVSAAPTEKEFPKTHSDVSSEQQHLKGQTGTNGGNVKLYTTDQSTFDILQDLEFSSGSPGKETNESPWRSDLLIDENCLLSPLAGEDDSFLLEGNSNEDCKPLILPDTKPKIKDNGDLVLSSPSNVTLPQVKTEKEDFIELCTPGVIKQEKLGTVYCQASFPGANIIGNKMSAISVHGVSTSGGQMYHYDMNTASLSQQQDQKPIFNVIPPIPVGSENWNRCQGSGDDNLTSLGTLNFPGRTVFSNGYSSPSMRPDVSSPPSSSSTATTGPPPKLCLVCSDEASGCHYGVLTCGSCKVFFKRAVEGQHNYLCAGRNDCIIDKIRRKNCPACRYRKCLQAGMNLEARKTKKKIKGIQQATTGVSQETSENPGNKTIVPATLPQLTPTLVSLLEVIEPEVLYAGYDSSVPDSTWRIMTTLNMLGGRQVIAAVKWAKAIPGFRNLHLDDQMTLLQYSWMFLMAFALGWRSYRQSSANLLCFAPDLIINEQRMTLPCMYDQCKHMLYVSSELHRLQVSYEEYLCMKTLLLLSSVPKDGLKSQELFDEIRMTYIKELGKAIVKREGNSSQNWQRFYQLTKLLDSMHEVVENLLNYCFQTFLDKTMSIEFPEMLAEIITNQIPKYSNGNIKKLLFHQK
Experiment: Binding affinity to human glucocorticoid receptor by radioligand displacement assay
pKi: −log10 of the molar value.
endpoint: pKi

*Q* Which pKi is reported with Glucocorticoid receptor (Homo sapiens) for this entry: O=C(Cc1ccccc1)NC1CCN(CCCN2C(=O)COc3ccccc32)CC1 ?
*A* ≤ 6.00

---

pKi: −log10 of the molar value.
endpoint: pKi

*Q* Report pKi for O=C(Cc1ccccc1)NC1CCN(CCCN2C(=O)COc3ccccc32)CC1 tested on Histamine H3 receptor (Homo sapiens).
Sequence (Q9Y5N1 whole entry): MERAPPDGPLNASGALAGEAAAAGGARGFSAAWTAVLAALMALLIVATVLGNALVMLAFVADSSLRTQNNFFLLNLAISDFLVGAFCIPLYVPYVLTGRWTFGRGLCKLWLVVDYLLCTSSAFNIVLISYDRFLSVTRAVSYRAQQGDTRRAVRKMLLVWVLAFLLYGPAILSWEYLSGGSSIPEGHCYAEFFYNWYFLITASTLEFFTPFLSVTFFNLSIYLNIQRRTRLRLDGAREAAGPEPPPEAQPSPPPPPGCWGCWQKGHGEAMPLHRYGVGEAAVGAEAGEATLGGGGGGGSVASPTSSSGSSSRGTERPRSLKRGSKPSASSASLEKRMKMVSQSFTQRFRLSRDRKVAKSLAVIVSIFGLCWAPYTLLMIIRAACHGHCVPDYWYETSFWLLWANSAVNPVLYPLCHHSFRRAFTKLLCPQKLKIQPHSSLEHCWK
*A* ≤ 6.00

---

Assay: Binding affinity to GABAA receptor by radioligand displacement assay
pKi: −log10 of the molar value.
endpoint: pKi

*Q* Please report the recorded pKi for O=C(Cc1ccccc1)NC1CCN(CCCN2C(=O)COc3ccccc32)CC1 .
*A* ≤ 6.00

This collection of values is drawn from ChEMBL document CHEMBL1240489.
